Origin of measurements: patent US20200277374A1

Molecular target: human Siglec-7 expressed on human cells (primary monocytes, dendritic cells, macrophages, NK cells, … (human, UniProt Q9Y286 19-467))
Sequence (Q9Y286 19-467): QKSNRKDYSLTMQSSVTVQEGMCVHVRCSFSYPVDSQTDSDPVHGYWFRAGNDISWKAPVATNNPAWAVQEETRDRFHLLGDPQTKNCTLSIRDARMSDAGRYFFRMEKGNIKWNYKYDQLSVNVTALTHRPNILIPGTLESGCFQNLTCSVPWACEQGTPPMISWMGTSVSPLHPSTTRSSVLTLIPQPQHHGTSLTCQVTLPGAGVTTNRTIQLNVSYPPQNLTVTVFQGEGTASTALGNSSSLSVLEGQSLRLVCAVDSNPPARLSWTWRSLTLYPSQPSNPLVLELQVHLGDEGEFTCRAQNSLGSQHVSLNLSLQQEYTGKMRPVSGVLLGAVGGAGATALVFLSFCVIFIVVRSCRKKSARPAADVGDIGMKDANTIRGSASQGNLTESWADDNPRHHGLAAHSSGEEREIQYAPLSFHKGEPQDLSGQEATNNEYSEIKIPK
Assay: cell-based or functional assay
For each entry below, report its Percent Siglec-7 Surface Expression, Microglia value.
One number for each entry, in %.

Examples with answers:
binder="anti-Siglec-7 antibody 10B5 (antibody, V domains shown, that light chain holds several Z and differs in its CDRs from S7-10B5.1 / 10B5L1; also called S7-10B5; mAb S7-10B5) VH: QVHLQQSGPELVKPGASVKISCKASGYAFTNCWMNWVRQRPGKGLDWIGRIFPGNGHTNYSGKFKDKATLTEDKSSSTAYMQLSSLTSEDSAVYFCARDYSDYYFDYWGQGTTLTVSS VL: DVQMTQTTSSLSASLGDRVTISCRASQDINTYLNWYQQKPDGTVKLLIYYTSRLHSGVPSRFSGSGSGTDYSLTISNLEQEDIATYFCQQGNTLPWTFGGGTKLEIK" recorded_measurement=5.5
binder="anti-Siglec-7 antibody 7F12 (antibody, V domains shown, Variable domains assembled from FR and CDR entries) VH: QVQLQQSGSELRSPGSSVKLSCKDFDSEVFPITYMNWVRQKPGHGFEWIGDILPSIGRTMYGEKFEDKATLDADTVSNTAYLELNSLTSEDSAIYYCARSEGYLLAYWGQGTLVTVSA VL: DVLMTQTPLSLPVSLGDQASISCRSSQSLVHSTGNTYLHWYLQKPGQSPKLLIYKVSNRFSGVPDRFSGSGAGTDFTLKISRVEAEDLGVYFCSQNTHVPYTFGGGTKLEIK" recorded_measurement=28.1

For reference, reported Percent Siglec-7 Surface Expression, Microglia for anti-Siglec-7 antibody 1E8 (antibody, V domains shown) VH: QVQLQQSGAELVRPGASVKLSCSASGFNIKGSLLHWIKQRPLQGLEWIGWIDPEDGETRFDPKFQDKAFLTADTSSTTAYLQLSSLTSEDTAIYYCARTEYSNPAWFAYWGQGTLVTVSA VL: DIQMTQFPATLSVTPGDRVSLSCRASQSISDYLHWYQHKSHESPRLLIKYASQSISGIPSRFSGSGSGWDFTLSINSVEPEDVGIYYCQKGLNFPLTFGGGTKLEMK stands at 41.3
